Where these numbers come from: the supplement of paper PMC7125110

B1: glmS ribozyme (parent)
chain: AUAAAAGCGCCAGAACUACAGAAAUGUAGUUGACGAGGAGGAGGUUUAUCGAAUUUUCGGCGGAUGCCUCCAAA

Variants of: B1
Assay: self-cleavage kobs at 10000 uM GlcN6P; higher = faster cleavage; RNA array
Conditions: with glucosamine-6-phosphate
This sample holds only a part of the variants without activity.
property_measured: self-cleavage kobs at 10000 uM GlcN6P (s⁻¹)
Number in s⁻¹, nothing else.

>>> df
                             residue_string  data_value
0  AUAAAAGCGCCUGAACUACAGAAAUGUAAUUGACGAGGAGGAGGUUUAUCGAAUUUUCGGCGGAUGCCUCCAAA [A12U G29A]       0.041
1  AUAAAAGCGCCAGAACUACAGAAAUGUAGUUGACGAGGAGGAGGUUUAUCGAAUUUUCGGCGGAUGUUUCCAAA [C67U C68U]    0.000107
2  AUAAAAGCGCCAGAACUACAGAAAUGUAGUUGACGAGGCGGAGGUUUAUCGAAUUUUCGGCGGAUGCCUUCAAA [A39C C70U]    0.000616
3  AUAAACGCGCCAGAACUACAGAAAUGUAGUGGACGAGGAGGAGGUUUAUCGAAUUUUCGGCGGAUGCCUCCAAA [A6C U31G]    1.74e-05
4  AUAAAAGCGCCAGAACUACAGAAAUGUAGUUGACGAGGAGGAGGUUCAUCGAAUUUCCGGCGGAUGCCUCCAAA [U47C U57C]    6.24e-05
5  AUAAAAGCGCCAGAACUACAGAAAUGUAGUUGACGAGGAGGAGGGUUAUCGAAUUUUCGGCGGAUGCCUCCAAA [U45G]     0.00968
6  AUAAAAGCGCCAGAACUACAGAAAUGUAGUAGACGAGGAGGAGGUUUAUCGAAUUGUCGGCGGAUGCCUCCAAA [U31A U56G]      0.0132
7  AUAAAAGCGCCAGUACUACAGAAAUGUAGUUGACGAGGGGGAGGUUUAUCGAAUUUUCGGCGGAUGCCUCCAAA [A14U A39G]      0.0136
8  AUAAAAGCGCCAGAACUACAGAAAUGUAGUUGACGAAGAGAAGGUUUAUCGAAUUUUCGGCGGAUGCCUCCAAA [G37A G41A]    0.000229
9  AUAAAAGCGCCAGAACUACAGAAAUGUAGUUGACGAGGAGGAUGUUUAUCGAAUUUUCGGCGGAUGCAUCCAAA [G43U C68A]      0.0761

Entry AUAAAAGCGCCAGAACUACAGAAAUGUAGUGGACGAGGAGAAGGUUUAUCGAAUUUUCGGCGGAUGCCUCCAAA [U31G G41A] has what self-cleavage kobs at 10000 uM GlcN6P? 0.000506

Entry AUAAAAGCGCCAGAACUGCAGAAAUGUAGUUGACGAGGAGGAGGUUUAUCGAAUUUUCGGCGGAUGCCUACAAA [A18G C70A] has what self-cleavage kobs at 10000 uM GlcN6P? 0.000432

Entry AUAAAAGCGCCAGAACUACAGAAAUGUAGGUGACGAGGUGGAGGUUUAUCGAAUUUUCGGCGGACGCCUCCAAA [U30G A39U U65C] has what self-cleavage kobs at 10000 uM GlcN6P? 0.000419

Entry AUAAAAGCGCCAGAACUACAGAAAUGUAGUUGAAGAGGAGGAGGUUUAUCGAAUUUUGGGCGGAUGCGUCCAAA [C34A C58G C68G] has what self-cleavage kobs at 10000 uM GlcN6P? 0.000608
